Sourced from PubChem BioAssay (NCI)

// growth lookup, one value per entry
- Test system: OVCAR-8 ovarian
- TEST METHOD NOTES: NCI-60 one-dose screen, 48 h (100 = growth as untreated, 0 = no growth, -100 = all killed)
- CONDITION SET: 10 µM unless noted
Compounds without any hit were thinned out: in the full panel of roughly 83,000, 20% have a hit.
// return numeric value only (unit: %, not printed)

COMPOUND	READING UNIT	OBSERVED
O=C(Nc1ccc(-c2ccc3c(c2)NC(=O)/C3=C\c2ccc[nH]2)cc1)Nc1ccc(Cl)c(Cl)c1	%	55.6
Nc1nn2c(-c3cc4ccccc4oc3=O)ccnc2c1N=Nc1ccccc1	%	42.2
Oc1cncc(-c2ccc3ncnc(N4CCc5cc(F)c(Cl)cc54)c3c2)c1	%	37.4
COc1ccc(C2=NN(C(=O)[C@H]3[C@@H](c4ccco4)c4sc(=O)[nH]c4S[C@@H]3C)C(c3ccc4ccccc4c3)C2)cc1 (some centres undefined)	%	28

query: Look at this compound and give its reported growth. `COc1cc(/C=C/C(=O)c2ccc(S(=O)(=O)NCCNc3nc(N(C)C)nc(N4CCOCC4)n3)cc2)cc(OC)c1OC`
result: -49.5

query: What do we get for `CCOC(=O)c1ccc(NC(=S)NC(=O)c2ccc(NC(=O)C(C)C)cc2OC)cc1` ?
result: 35.1

query: What do we get for `COC(=O)c1c(C(=O)OC)c2c3ccccc3c3ccccc3n2c1C(=O)C(F)(F)F` ?
result: 99.6

---

- System: ACHN renal
- TEST METHOD NOTES: NCI-60 one-dose screen, 48 h (100 = growth as untreated, 0 = no growth, -100 = all killed)
- CONDITION SET: 10 µM unless noted
The panel holds about 83,000 compounds, 20% with a hit somewhere; the sample as a whole holds those more often. The source made the active and inactive calls. How the source made its calls: active means growth percent below 10; inactive means the rest.
// growth lookup, one value per entry

Some solved cases for reference:
COMPOUND	TARGET OR SYSTEM	growth
Cn1cc(-c2cc(N)n3nc(-c4c[nH]c5ccc(F)cc45)cc3n2)c2cc(Br)cnc21	ACHN renal	39.5% (inactive)
Nc1nnc(-c2cncc(Br)c2)c(-c2c[nH]c3ccc(Br)cc23)n1	ACHN renal	56.5% (inactive)

query: Look at this compound and give its reported growth. Cc1cc(C)c2[nH]c(=O)c(C(c3nnnn3Cc3ccc4c(c3)OCO4)N3CCN(C)CC3)cc2c1 (stereo not given)
result: 106% (inactive)

query: What do we get for CC1=C(C(=O)Nc2ccccc2)C(c2cccc3ccccc23)n2c(nc3ccccc32)N1 (stereo not given) ?
result: 27.6% (inactive)

query: What do we get for `CCCCCCCCc1cccc(CC(=O)Nc2ccc(C)cc2C(=O)O)c1` ?
result: 46.7% [25 µM] (inactive)

---

// growth lookup, one value per entry
- System: MDA-MB-231 breast
- TEST METHOD NOTES: NCI-60 one-dose screen, 48 h (100 = growth as untreated, 0 = no growth, -100 = all killed)
- CONDITION SET: 10 µM unless noted
- Protocol: Cells are grown in 96 well plates and exposed to the test compound for 48 hours. Compounds are tested at a single concentration, which is 10^-5 M for most compounds. The reported endpoint is percent growth (GI% or GIPRCNT), where numbers from 0 - 100% represent growth inhibition, and numbers from -100% - 0 represent cell death. For example, a value of 40 represents 60% growth inhibition. A value of 0 means no net growth occurred over the course of the experiment. […]
The panel holds about 83,000 compounds, 20% with a hit somewhere; the sample as a whole holds those more often.
// return numeric value only (unit: %, not printed)

Some solved cases for reference:
COMPOUND	READING UNIT	growth
CCCSc1nnc(-c2sc3nc4ccccc4n3c2C)o1	%	108
CCCCNc1ccc2c3c(cccc13)C(=O)N(c1cccc(-c3nn(-c4ccccc4)cc3-c3nc4ccccc4s3)c1)C2=O	%	99.1
COc1cc(NC(=O)C(C)C)ccc1C(=O)NC(=S)Nc1ccc(S(N)(=O)=O)cc1	%	93.1
Cc1nn(-c2ccccc2)c2nc(C)n(C(=O)N/N=C/c3cccc([N+](=O)[O-])c3)c(=O)c12	%	94.7
O=C(N/N=C/c1ccc(-c2cccc([N+](=O)[O-])c2)s1)c1[nH]c2ccc(Br)cc2c1-c1ccccc1	%	74.6
CCc1ccccc1-c1nc(CN[C@@H]2C[C@@H]3C[C@H]([C@H]2C)C3(C)C)c(C)o1	%	-78.3

query: Look at this compound and give its reported growth. `COc1ccc(N=Nc2c(N)nn3c(-c4ccc(F)cc4)ccnc23)cc1`
result: 77.2

query: What do we get for `C#CCCCNCCNc1ccnc2cc(Cl)ccc12` ?
result: 66.3
